system: C. elegans complex IV (cytochrome C oxidase); assay: In vitro complex IV activity assay, C. elegans mitochondria; format: biochemical, Caenorhabditis elegans; details: 100 μM of NPD compound; C. elegans mitochondria; mean of four biological replicates
EXPERIMENTAL READOUT: Percent in vitro activity, Complex IV (Mean) (%)
Your answer is read as %, so omit the unit and give the number.

Worked cases, Percent in vitro activity, Complex IV (Mean) given:
{"columns": ["MOLECULE", "UNITS", "QUANTITATIVE READOUT"],
 "data": [
  ["COc1ccc(-c2cc(=Nc3ccc(C)cc3)c3ccccc3o2)cc1OC", "%", 117.121],
  ["COc1cc2c(cc1OC)C(/C=C/c1ccc(N(C)C)cc1)=NCC2", "%", 83.071],
  ["CCCCCCCCCCCCCCCc1cccc(O)c1C(=O)O", "%", 15.803]
]}

Please look at the following molecule next.
What Percent in vitro activity, Complex IV (Mean) value was documented for this molecule, CC(C)Cc1ccc(C(C)c2nc3ccccc3n2C)cc1 (stereo not shown) ?
79.837

Cited source for all entries: paper PMC11079024
